- test-name: Drug level in tumor of human BT474 cells xenografted in ICR-SCID mouse at 200 mg/kg, ip administered after 3 weeks tumor implantation measured after 48 hrs
- Format: ADME, organism-based, Neoplasm, BT-474
- Design: dose 200 mg/kg, route intraperitoneal
- assay-context: tumor (human BT474 xenograft), read-out: Drug uptake
assay-endpoint: concentration at 48 h (ng/g)

> print(dat)
                         chemical.structure         assay.endpoint  endpoint.unit  quantitative.result
1  O=C1OCC/C=C/CC/C=C/C(=N/OCC(=O)N2CCCCC2)Cc2c(Cl)c(O)cc(O)c21  concentration at 48 h           ng/g                 4020

====

- test-name: Drug level in tumor of human BT474 cells xenografted in ICR-SCID mouse at 200 mg/kg, ip administered after 3 weeks tumor implantation measured after 12 hrs
- Format: ADME, organism-based, Neoplasm, BT-474
- Parameters: dose 200 mg/kg, route intraperitoneal
- assay-context: tumor (human BT474 xenograft), read-out: Drug uptake
assay-endpoint: concentration at 12 h (ng/g)

> print(dat)
                         chemical.structure  quantitative.result
1  O=C1OCC/C=C/CC/C=C/C(=N/OCC(=O)N2CCCCC2)Cc2c(Cl)c(O)cc(O)c21                 8920

====

- Test system: Mus musculus
- test-name: Hepatotoxicity in ICR-SCID mouse liver assessed as bilirubin level at 50 mg/kg administered 3 times per week for 4 weeks measured after 24 hrs of last dose relative to untreated control
- Format: toxicity, organism-based
- Design: dose 50 mg/kg
- assay-context: in vivo
assay-endpoint: Activity (mg/dL)

compound	assay-endpoint	quantitative-result
C=CCNC1=C2C[C@@H](C)C[C@H](OC)[C@H](O)[C@@H](C)/C=C(\C)[C@H](OC(N)=O)[C@@H](OC)/C=C\C=C(/C)C(=O)NC(=CC1=O)C2=O (stereo in doubt) [TANESPIMYCIN]	Activity	0.2

====

- test-name: Drug level in tumor of human BT474 cells xenografted in ICR-SCID mouse at 100 mg/kg, ip administered after 3 weeks tumor implantation measured after 24 hrs
- Format: ADME, organism-based, Neoplasm, BT-474
- Set-up: dose 100 mg/kg, route intraperitoneal
- assay-context: tumor (human BT474 xenograft), read-out: Drug uptake
assay-endpoint: concentration at 24 h (ng/g)

> print(dat)
                         chemical.structure  quantitative.result
1  O=C1OCC/C=C/CC/C=C/C(=N/OCC(=O)N2CCCCC2)Cc2c(Cl)c(O)cc(O)c21                 4020

====

- test-name: Half life in ICR-SCID mouse
- Type: ADME, organism-based
- assay-context: in vivo
assay-endpoint: half-life (h)

> print(dat)
                                   compound  assay.endpoint  quantitative.result
1  O=C1OCC/C=C/CC/C=C/C(=N/OCC(=O)N2CCCCC2)Cc2c(Cl)c(O)cc(O)c21 [POCHOXIME A]       half-life                  2.5

====

- test-name: Aqueous solubility of the compound
- Assay type: physicochemical
assay-endpoint: solubility

> print(dat)
                         chemical.structure       result
1  C[C@@H]1C/C=C/CC/C=C/C(=N/OCC(=O)N2CCCCC2)Cc2cc(OP(=O)([O-])[O-])cc(OP(=O)([O-])[O-])c2C(=O)O1.[Na+].[Na+].[Na+].[Na+]  > 100 mg/mL
2  C[C@@H]1C/C=C/CC/C=C/C(=N/OCC(=O)N2CCCCC2)Cc2cc(OP(=O)([O-])[O-])cc(O)c2C(=O)O1.[Na+].[Na+]   ≥ 80 mg/mL
3  O=C1OCC/C=C/CC/C=C/C(=N/OCC(=O)N2CCCCC2)Cc2c(Cl)c(O)cc(OP(=O)([O-])[O-])c21.[Na+].[Na+]   ≥ 80 mg/mL
4  O=C1OCC/C=C/CC/C=C/C(=N/OCC(=O)N2CCCCC2)Cc2cc(OCOP(=O)([O-])[O-])cc(O)c21.[Na+].[Na+]   ≥ 80 mg/mL
5  O=C1OCC/C=C/CC/C=C/C(=N/OCC(=O)N2CCCCC2)Cc2c(Cl)c(OP(=O)([O-])[O-])cc(O)c21.[Na+].[Na+]   ≥ 80 mg/mL
6  O=C1OCC/C=C/CC/C=C/C(=N/OCC(=O)N2CCCCC2)Cc2cc(OP(=O)([O-])[O-])cc(O)c21.[Na+].[Na+]   ≥ 80 mg/mL

====

- test-name: Oral bioavailability in mouse
- Type: ADME, organism-based
- assay-context: in vivo
assay-endpoint: bioavailability (%)

> print(dat)
                                   compound   assay.endpoint  endpoint.unit  quantitative.result
1  O=C1OCC/C=C/CC/C=C/C(=N/OCC(=O)N2CCCCC2)Cc2c(Cl)c(O)cc(O)c21 [POCHOXIME A]  bioavailability              %                  3.4

====

- test-name: Drug level in tumor of human BT474 cells xenografted in ICR-SCID mouse at 150 mg/kg, ip administered after 3 weeks tumor implantation measured after 12 hrs
- Type: ADME, organism-based, Neoplasm, BT-474
- Design: dose 150 mg/kg, route intraperitoneal
- assay-context: tumor (human BT474 xenograft), read-out: Drug uptake
assay-endpoint: concentration at 12 h (ng/g)

> print(dat)
                         chemical.structure  endpoint.unit  quantitative.result
1  O=C1OCC/C=C/CC/C=C/C(=N/OCC(=O)N2CCCCC2)Cc2c(Cl)c(O)cc(O)c21           ng/g                 6500

====

Reported GI50, Heat shock protein HSP 90-alpha (Homo sapiens).
assay-endpoint: GI50 (nM)

> print(dat)
                                   compound                            assayed.system  relational.operator  quantitative.result
1  O=C1OCC/C=C/CC/C=C/C(=N/OCC(=O)N2CCCCC2)Cc2cc(O)cc(O)c21 [POCHOXIME B]  Heat shock protein HSP 90-alpha (Homo sapiens)                    =                   15
2  C[C@@H]1C/C=C/CC/C=C/C(=N/OCC(=O)N2CCCCC2)Cc2cc(O)cc(O)c2C(=O)O1 [POCHOXIME C]  Heat shock protein HSP 90-alpha (Homo sapiens)                    =                   18
3  O=C1OCC/C=C/CC/C=C/C(=N/OCC(=O)N2CCCCC2)Cc2c(Cl)c(O)cc(O)c21 [POCHOXIME A]  Heat shock protein HSP 90-alpha (Homo sapiens)                    =                   21
4  O=C1OCC/C=C/CC/C=C/C(=N/OCC(=O)N2CCCCC2)Cc2c(Cl)c(OP(=O)([O-])[O-])cc(O)c21.[Na+].[Na+]  Heat shock protein HSP 90-alpha (Homo sapiens)                    >                10000

====

- test-name: Drug level in tumor of human BT474 cells xenografted in ICR-SCID mouse at 100 mg/kg, ip administered after 3 weeks tumor implantation measured after 6 hrs
- Format: ADME, organism-based, Neoplasm, BT-474
- Parameters: dose 100 mg/kg, route intraperitoneal
- assay-context: tumor (human BT474 xenograft), read-out: Drug uptake
assay-endpoint: concentration at 6 h

> print(dat)
                         chemical.structure     result
1  O=C1OCC/C=C/CC/C=C/C(=N/OCC(=O)N2CCCCC2)Cc2c(Cl)c(O)cc(O)c21  5490 ng/g

====

- Tested on: Mus musculus
- test-name: Toxicity in ICR-SCID mouse kidney assessed as creatinine level at 50 mg/kg administered 3 times per week for 4 weeks measured after 24 hrs of last dose relative to untreated control
- Type: organism-based
- Parameters: dose 50 mg/kg
- assay-context: in vivo

molecule	endpoint-unit	Activity
C=CCNC1=C2C[C@@H](C)C[C@H](OC)[C@H](O)[C@@H](C)/C=C(\C)[C@H](OC(N)=O)[C@@H](OC)/C=C\C=C(/C)C(=O)NC(=CC1=O)C2=O (stereo in doubt)	mg/dL	0.2

====

- test-name: Drug level in tumor of human BT474 cells xenografted in ICR-SCID mouse at 150 mg/kg, ip administered after 3 weeks tumor implantation measured after 48 hrs
- Type: ADME, organism-based, Neoplasm, BT-474
- Design: dose 150 mg/kg, route intraperitoneal
- assay-context: tumor (human BT474 xenograft), read-out: Drug uptake
assay-endpoint: concentration at 48 h

> print(dat)
                         chemical.structure     result
1  O=C1OCC/C=C/CC/C=C/C(=N/OCC(=O)N2CCCCC2)Cc2c(Cl)c(O)cc(O)c21  4580 ng/g
